Attribution: ChEMBL document CHEMBL1201862

- System: SR
- test details: NCI tumour cell line growth inhibition, 48 h
Activity calls are given as the source filed them. No stated cut-off is given here; in the data, active = GI50 up to about 1.1 µM and inactive = higher. Where a SMILES comes first, the peptide text is derived from it. The star is where a group is joined. Boc = CC(C)(C)OC(=O)*; OBn = c1ccc(CO*)cc1
Please answer using one outcome listed in 1 (active), 0 (inactive)

Query block: Hey, what did the test say about CC1=CC[C@@H](C(C)(C)O)C[C@@H]1O ?
Result block: 0

Query block: Name the outcome recorded for Cn1c(C2CCCc3c2c2ccccc2n3C)cc2ccccc21 (stereo not given) in the assay.
Result block: 0

Query block: Please let me know the test result on file for C=CCN1C(=O)C(=O)N(CC=C)C(=O)C1=O .
Result block: 0

Query block: Give the logged outcome of this assay for the following molecule: Cc1c2c(ccc3ccccc32)c[n+]2ccccc12
Result block: 0

Query block: Fill in: this test's call for O=C1Nc2ccccc2/C1=N\c1cccc2ncccc12 is ___
Result block: 0

Query block: Hi team, can someone confirm the assay call for CC(C(N)=O)N(C)C(=O)c1cnc2ccccc2c1 (stereo not given) ?
Result block: 0

Query block: Tell me the assay call for C=C(C(N)=O)c1ccc([N+](=O)[O-])o1 please.
Result block: 0

Query block: GET /call?item= CC(C)CC(NC(=O)OC(C)(C)C)C(=O)N1CCCC1C(=O)OCc1ccccc1 (stereo not drawn) (Boc-Leu-Pro-OBn; configuration not given here) returns the recorded outcome of this test.
Result block: 0

Query block: Any idea what this test logged for C=C1C[C@@H]2O[C@H]3[C@H]4[C@@H](C[C@@H](C)[C@@H](OC(C)=O)[C@H]42)[C@@H](C)CO[C@@]3(C)[C@H](OC(C)=O)C[C@H]1O ?
Result block: 0

Query block: Hi team, can someone confirm the assay call for CCCCCCCCCCCCCCCCCC(CCCCCCCCCCCCCCCCC)OP(=O)(O)O ?
Result block: 0

Query block: Please let me know the test result on file for C/C=C/C(O)P(=O)(OC)OC (stereo not given) .
Result block: 1

Query block: Kindly provide the recorded test outcome for the following molecule: O=C1C=C(O)C(=Cc2c(O)cc(O)cc2O)C(O)=C1
Result block: 0

Query block: What is the recorded call for this molecule in the test? COC1=CC(=O)C2=C(C1=O)[C@H]1CC[C@]3(C)C(=O)CC[C@H]3[C@@H]1CC2
Result block: 0

Query block: Assay result, entry O=c1[nH]c(-n2[nH]c3c(c2=O)CCCC3)nc(O)c1-c1ccccc1 — outcome?
Result block: 0

Query block: // outcome(item) with item = CC(C)CC(NC(=O)C(C)(CI)Cc1ccccc1)C(=O)Nc1ccccc1 (stereo not given)
Result block: 0

Query block: Field: outcome | Entry: O=C1CCC2=C(CCC2)N1CCc1ccc2c(c1)OCO2
Result block: 0

Query block: Entry COC(=O)C1=C(O)C(C(=O)OC)[C@]2(O)[C@H](C(=O)OC)[C@H]1C[C@@H](c1c(Cl)cccc1Cl)[C@H]2C(=O)OC (stereo not given in full) : call = ?
Result block: 0

Query block: GET /call?item= CO[C@H]1O[C@@H]2CO[C@@H](c3ccccc3)O[C@H]2[C@@H]2CC=CCC[C@]12O returns the recorded outcome of this test.
Result block: 0

Query block: I would be grateful if you could indicate the recorded call for COc1cccc(-c2cc(O)c3cc(NC(C)=O)ccc3n2)c1 .
Result block: 0

Query block: Record lookup: outcome of this test for CN1C(=O)N/C(=C\c2ccc(S(=O)(=O)N/N=C\C(O)C(O)C(O)CO)cc2)C1=O (stereo not given) ?
Result block: 0

Query block: For COC1CCC(OS(C)(=O)=O)C(C)O1 (stereo not given) , which call appears in the assay record?
Result block: 0

Query block: Tell me the recorded outcome of this test for Cc1nc2cc(N)c(F)cc2[nH]1 .
Result block: 0

Query block: Status in this test for COc1ccc2c(c1)CCN1CCCc3ccc(OC)cc3C21 (stereo not given) ?
Result block: 0

Query block: Just curious, what result did COC(=O)c1c(O)ccc2c1c1c(n2Cc2ccccc2)C(=O)c2ccccc2C1=O get here?
Result block: 0

Query block: Any idea what this test logged for CC(=O)O[C@H]1C(=O)[C@@]2(C)C(C(OC(=O)c3ccccc3)[C@]3(O)CC(OC(=O)C(O)C(NC(=O)c4ccccc4)c4ccc(F)cc4)C(C)=C1C3(C)C)[C@]1(OC(C)=O)CO[C@@H]1C[C@@H]2O (stereo not given in full) ?
Result block: 1
